method-summary: soluble on expression in E. coli; label from the status in PepcDB or PDB records
readout-name: soluble on expression in E. coli

Example cases with answers are listed next.
- sequence-input: "MGSDKIHHHHHHMYTREELMEIVSERVKKCTACPLHLNRTNVVVGEGNLDTRIVFVGEGPGEEEDKTGRPFVGRAGMLLTELLRESGIRREDVYICNVVKCRPPNNRTPTPEEQAACGHFLLAQIEIINPDVIVALGATALSFFVDGKKVSITKVRGNPIDWLGGKKVIPTFHPSYLLRNRSNELRRIVLEDIEKAKSFIKKEG"
  recorded-measurement: "soluble"
- sequence-input: "MSLGQVEVIDRRQSVFGDDIQLQKRSSSYEIISNGVFLMSTENGRSEREMVTLGAQHMKNAVHSVLIGGLGVGITADEAVHLNDHVQVHVVEIEPSVVEWQYRYLYPFSNQALEHERTAIIISDIQQWLRTNERTYDLICLDTDNGPDWMVHKQNASLYGKIGLELVRERVRVGGAVSFWSASASESFLHELETLFDRVYEHAVSISHTLPPDYVYVACREGHHHHHH"
  recorded-measurement: "not soluble"
- sequence-input: "MGSDKIHHHHHHMSTRMVTLHGRIVLRASIELLTGLHIGGAAGGLEIGGLDKPVIRNPITNQPYIPGSSLKGKLRSLMEKVYGAPQTFRINEGVFIHVPTNPEEYQRYYQIAGVFGTLPNHKQLTIDVPTRLIVRDVPLTRESEQELRRLRTDLPYTEIKWEAAIDRVTSAAAPRQIERVPAGAVFGPAEVVYSLYVGNGEQLSDVIRLFGSVYEAFTYLEDDYLGGMGSRGNGQVRLRDITVLARRLESGRYGELTTIREAKELRELDRNGLLEELQRFFNPA"
  recorded-measurement: "not soluble"
- sequence-input: "MENKEISYEIIDFSGETNVQFRTSVDPGSYIPTHWHRAIEIIYMQEGSLDVIVESESFTIYKGDCILVNGNVLHSTKCTAPNTAILLQIPLNFMEKYIPNLGQLIFLWDYRTEDPVKKTKLMMLKTTLEQLQVINDIQPDGYLLRFNSLIFELMFQLYHNFSVQVFPQDINHKKKEMDRLDP"
  recorded-measurement: "not soluble"
- sequence-input: "MTIYDINFAELYQQHLIACNHYNLPPIKWDKKAVKMAENLVGKPSAYNQQLLQAMNVQTDEAVLDIGCGPGTFAVPLAQQGSTVYALDYSNGMLDCLAQFKQKFGLHHLTTFHKSWADNWDDVPQADVVLASRSTLVDDLDDMIEKLCAKAKKRVFLTSVTQRHFLDEGVFEAIGREDIGFPTYIYLLNRLYQKGIQANLNFIETESGCFQGESYEDLLASVEFSLGELSEKEKQGLKAFYDRKQANNEPISHGQKKWALIWWNVDRILEHHHHHH"
  recorded-measurement: "soluble"
- sequence-input: "AVCDTPHERLTILYTKILDLLKHFPKHAAYRKYTEQITSEKLELVKLEPDVKKLENLLQGG"
  recorded-measurement: "soluble"
- sequence-input: "MGSDKIHHHHHHMRHDKFAGPAYTIQIVSNALDMLELLAMRPANPSLGRLAGSLNLTRNKAYRLLSTLCERGLVEQDPETGTYAIGVAALELAQRLIRQAPVVNHAHPIMEELARKHDEAVYMTVLRGDDVVFLDMVDCERQVKATPLIGRRFPYFTNAAGKAIKALEGADPLNLLKKRGRKNNSLDVGSLLSELHEIRHKGVAVDCGGLGDGIVSVAVAVRDYAGKVVGAITMLVPSFRAVADRLESEIIPSLQEGADLLSMKLGHGPC"
  recorded-measurement: "not soluble"
- sequence-input: "MEVVRIPEFKEKTAPGAYYQQPAIDGSRPGRFYANLFDIKATPKYGMRTLAYHEGIPGHHFQVAVAMELEGQPLIRKMAPFTAYIEGWALYSERVAWELGFQQDPFDNIGRLQAELFRAVRLVVDTGIHHSRWTREQAIDYMKKNTGMSDRDVTAEIERYIVMPGQATAYKVGMMKILELREKAKQALGDKFDLRDFHDVVLKNGAVPLDILEKLVDRYIADKRSQA"
  recorded-measurement: "not soluble"

Provide soluble on expression in E. coli values for the following items, in order.
1. MGSDKIHHHHHHMDVSIDSGKKKIIPFIQSGDYFFRRGVIAFRKNHLSRAVKLLERAVKLTEQEPVFHIQLAAVLSELGHYERSNDILESVVQNLDPGHSECHFFMANNYAYLGLFEKAEHCAIAYLSDQPDGEFAKDAHDLLDLLRFEKEEEGDEWENELTPTDQFLLEHEKACQLLEEGHLQEAIVLLEKLMDEEPSYWTAYNQYAQALFRLGNVEKAFEVCEHILEEDQGNLFALCNMALFYKKQGQQQQAESLIQALSAVHPMDRAHRFKVAQVLCAVGAYEQAYDRLKELEWTSISSDPEWHFCIGVAAYHLGQEEIALRYWKKAATLGVQQAADYYAMSIVDILQKEDVTYEGWHVKQKSRQNS
2. MGSSHHHHHHSSGLVPRGSHMAPIVETAKETNSDSSLYLDLMIKVLAGTVYEDPAHRENFSHRDSTYREEVRNEGRDWPANAHTMIGIKRLENIRQCVEDVIGNNVPGDLVETGVWRGGACILMRGILRAHDVRDRTVWVADSFQGIPDVGEDGYAGDRKMALHRRNSVLAVSEEEVRRNFRNYDLLDEQVRFLPGWFKDTLPTAPIDTLAVLRMDGDLYESTWDTLTNLYPKVSVGGYVIVDDYMMCPPCKDAVDEYRAKFDIADELITIDRDGVYWQRTR

1. not soluble
2. soluble

Provide soluble on expression in E. coli values for the following items, in order.
1. MQLDRVDRKILNELYNDSRLSMRELAKRVNLSAPSTSERVRKLESEGVIQKYTIDIDYKKAGLVLDCILEITLKNGDTTRMQQFIQSYPSASFCYRVTGSLCYIVKISVPSLVELEEFINDVSSYATTVSHIVLSEVSLTPDIEHIFPED
2. MKKTIVFKCGGSVIRELSEEFYQNLKELRASGWKLAIVHGGGPEITNMLKRLNIKTEFSGGQRKTTKPVLEVAEMVLSGSVNKFFVAELAKHGLRAAGISGKDGGLLEADYLDPETYGEVGEIKKVDASMVNALMENGIIPVIAPLSMTSDCKTLNVNADLAASAVAGALEADKLMFVTDVDGIMKEKQRLDVLTPKEIQMLIKQEVITGGMIPKVNSALSALSDQVSEVMIVNGKGSFFAEQTFQGTKIVKAKEAVS

not soluble
not soluble
